# Procedure summary: Cytotoxicity in African green monkey Vero cells assessed as reduction in cell viability incubated for 72 hrs by MTT assay
# Type: cell-based
# Condition set: chlorocebus sabaeus
Observed property: CC50 at 72 h

Cc1ccc(C(=O)/C=C2\Nc3ccccc3OC2=O)cc1 :: 1650 µM
O=C(NNC(=O)c1ccncc1)C(=O)Nc1ccc(Cl)cc1O :: 1160 µM
Cc1cccc(C(=O)/C=C2\Nc3ccccc3OC2=O)c1 :: > 1790 µM
COC(=O)/C=C1\Nc2ccccc2OC1=O :: > 2280 µM
Cc1ccccc1C(=O)/C=C1\Nc2ccccc2OC1=O :: > 1790 µM
O=C1Oc2ccccc2N/C1=C\C(=O)c1cccs1 :: > 1840 µM
O=C1Oc2ccccc2N/C1=C\C(=O)c1ccncc1 :: > 1880 µM
O=C1Oc2ccccc2N/C1=C\C(=O)c1ccccc1Cl :: 1570 µM
